protocolText: Cytotoxicity assay on macrophages (MTT)
measurementConditions: BALB/c, mouse, murine macrophages
readoutName: CC50 at 48 h
Report the figure along with its unit, number first.

For the compound COc1c(-c2ccc(O)c(O)c2-c2c(O)cc(O)c3c(=O)c(OC)c(-c4ccc(O)c(O)c4)oc23)oc2cc(O)cc(O)c2c1=O [Strychnobiflavone, strychnobiflavone] , what CC50 at 48 h is on record? 125 µM
